From: ChEMBL document CHEMBL3627626

# measured.target: Trifunctional purine biosynthetic protein adenosine-3 (Homo sapiens, UniProt P22102)
# Sequence (P22102 whole entry): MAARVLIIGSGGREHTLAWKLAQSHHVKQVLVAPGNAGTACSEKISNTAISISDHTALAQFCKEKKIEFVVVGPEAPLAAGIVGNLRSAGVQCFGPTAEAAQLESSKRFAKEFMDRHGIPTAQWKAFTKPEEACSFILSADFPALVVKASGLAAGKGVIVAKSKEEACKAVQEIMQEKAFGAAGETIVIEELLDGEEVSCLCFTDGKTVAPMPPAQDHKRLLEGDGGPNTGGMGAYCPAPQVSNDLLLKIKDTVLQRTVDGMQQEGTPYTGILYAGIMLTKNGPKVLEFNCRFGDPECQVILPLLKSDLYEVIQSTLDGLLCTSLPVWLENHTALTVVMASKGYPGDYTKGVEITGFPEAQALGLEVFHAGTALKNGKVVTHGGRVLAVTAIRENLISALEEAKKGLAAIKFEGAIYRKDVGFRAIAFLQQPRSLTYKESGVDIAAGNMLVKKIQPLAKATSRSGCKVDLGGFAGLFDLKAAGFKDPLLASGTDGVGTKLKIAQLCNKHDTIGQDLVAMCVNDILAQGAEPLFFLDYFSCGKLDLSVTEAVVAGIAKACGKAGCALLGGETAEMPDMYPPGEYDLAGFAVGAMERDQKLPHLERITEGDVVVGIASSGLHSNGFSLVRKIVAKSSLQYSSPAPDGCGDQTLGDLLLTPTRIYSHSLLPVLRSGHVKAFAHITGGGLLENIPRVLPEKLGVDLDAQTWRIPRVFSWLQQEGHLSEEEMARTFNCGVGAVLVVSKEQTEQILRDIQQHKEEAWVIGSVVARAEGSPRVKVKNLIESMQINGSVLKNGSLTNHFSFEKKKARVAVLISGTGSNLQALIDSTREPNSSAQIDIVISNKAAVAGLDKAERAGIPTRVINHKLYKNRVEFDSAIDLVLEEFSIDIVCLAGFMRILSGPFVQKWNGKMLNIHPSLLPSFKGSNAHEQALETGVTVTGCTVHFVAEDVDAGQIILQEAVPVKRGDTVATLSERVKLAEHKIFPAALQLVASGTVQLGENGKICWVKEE
# method: Inhibition of human recombinant His-tagged GARFTase assessed as formation of 5,8-dideazafolate from 10-formyl-5,80-dideazafolic acid measured every 15 secs over 20 mins by spectrophotometric analysis
measurement.type: pKi
One number for each entry, as −log10 of the molar value.

Record pKi for all entries; do not skip any.
1. Nc1nc(N)c2c(CCCc3cc(C(=O)N[C@@H](CCC(=O)O)C(=O)O)cs3)coc2n1
2. Nc1nc2[nH]c(CCCc3cc(C(=O)N[C@@H](CCC(=O)O)C(=O)O)cs3)cc2c(=O)[nH]1
3. Nc1nc2[nH]c(CCCc3csc(C(=O)N[C@@H](CCC(=O)O)C(=O)O)c3)cc2c(=O)[nH]1
4. Nc1nc(N)c2c(CCCc3csc(C(=O)N[C@@H](CCC(=O)O)C(=O)O)c3)coc2n1

1. 5.19
2. 8.04
3. 7.89
4. 5.26
